Would you kindly list protein stability index for each of these variants?
B1: C10orf62 (parent)
chain: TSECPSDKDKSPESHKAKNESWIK

# Variants of: B1
# experiment-summary: protein stability index of a GFP-peptide fusion (GPS, HEK-293T) (PSI 1-6); higher = more stable;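 further: lentivirally expressed fusions sorted by FACS into six bins by GFP to DsRed ratio, PSI derived from sequencing read proportions per bin multiplied by bin number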
# experimental-parameters: c terminus: a fixed tail appended
One number for each entry.

Solved entries (count: 10):
mutant-id	protein stability index
P5A	3.72
D9V	2.9
S11Y	2.5
S6V	3.27
W22V	5.79
H15Y	3.35
N19P	3.19
P5K	3.24
E13F	2.94
E20T	4.39

Quick batch: protein stability index for everything below.
1. S6K
2. S2Q
3. S6Q
4. S11P
5. S6T
6. S21R
7. K24E

1. 2.95
2. 3.85
3. 3.75
4. 3.52
5. 2.92
6. 4.9
7. 2.15

Quick batch: protein stability index for everything below.
1. N19C
2. S6F
3. K16C

1: 3.63; 2: 3.34; 3: 3.75

Quick batch: protein stability index for everything below.
1. K18C
2. K18W

1. 4.37
2. 3.26
